Test: Monkey brain to plasma ratio (Kp, Kpuu) after iv bolus and 2-hour iv infusion
Assay type: in vivo
Details: intravenous, calculated with fu,plasma and fu,brain
Readout Name: Kp uu at 2 h
Could you respond with only the numeric value?

Notebook: CCn1cc(-c2cc3c(N4CCN(c5ncc([C@@](C)(N)c6ccc(F)cc6)cn5)CC4)ncnn3c2)cn1 [Compound 63, reference compound] , Kp uu at 2 h read as 0.92

====

Experiment: Pharmacokinetics following single intravenous and oral administration in rats
Format: in vivo, Sprague-Dawley rats
Conditions: Sprague-Dawley, blood; rat, oral 2.5 mg/kg vs iv 1 mg/kg
Method: Assessment of pharmacokinetics following single intravenous and oral administration in rats: 3 Sprague-Dawley rats were employed for each compound for each route of administration (iv or oral). […] All the blood samples were analyzed for the drug concentrations via LC/MS-MS. […] % F was calculated as follows: % F=[AUCinf(oral)/Dose]/[AUCinf(iv)/Dose]*100 (Zhivkova & Doytchinova, Molecular Pharmaceuticals 10:3758-68 (2013)).
Readout Name: bioavailability (%)
# unit: % | format: bare number

Item: C[C@](N)(c1ccc(F)cc1)c1cnc(N2CCN(c3ncnn4cc(-c5cnn(CCO)c5)cc34)CC2)nc1 | bioavailability: 80
